Target Under Test: human DGKζ (Homo sapiens, UniProt Q13574)
Construct: TVMV protease cleavage site (C); Hexa-His (C)
Sequence (Q13574 with tags, fused parts or gaps isoform Q13574-4): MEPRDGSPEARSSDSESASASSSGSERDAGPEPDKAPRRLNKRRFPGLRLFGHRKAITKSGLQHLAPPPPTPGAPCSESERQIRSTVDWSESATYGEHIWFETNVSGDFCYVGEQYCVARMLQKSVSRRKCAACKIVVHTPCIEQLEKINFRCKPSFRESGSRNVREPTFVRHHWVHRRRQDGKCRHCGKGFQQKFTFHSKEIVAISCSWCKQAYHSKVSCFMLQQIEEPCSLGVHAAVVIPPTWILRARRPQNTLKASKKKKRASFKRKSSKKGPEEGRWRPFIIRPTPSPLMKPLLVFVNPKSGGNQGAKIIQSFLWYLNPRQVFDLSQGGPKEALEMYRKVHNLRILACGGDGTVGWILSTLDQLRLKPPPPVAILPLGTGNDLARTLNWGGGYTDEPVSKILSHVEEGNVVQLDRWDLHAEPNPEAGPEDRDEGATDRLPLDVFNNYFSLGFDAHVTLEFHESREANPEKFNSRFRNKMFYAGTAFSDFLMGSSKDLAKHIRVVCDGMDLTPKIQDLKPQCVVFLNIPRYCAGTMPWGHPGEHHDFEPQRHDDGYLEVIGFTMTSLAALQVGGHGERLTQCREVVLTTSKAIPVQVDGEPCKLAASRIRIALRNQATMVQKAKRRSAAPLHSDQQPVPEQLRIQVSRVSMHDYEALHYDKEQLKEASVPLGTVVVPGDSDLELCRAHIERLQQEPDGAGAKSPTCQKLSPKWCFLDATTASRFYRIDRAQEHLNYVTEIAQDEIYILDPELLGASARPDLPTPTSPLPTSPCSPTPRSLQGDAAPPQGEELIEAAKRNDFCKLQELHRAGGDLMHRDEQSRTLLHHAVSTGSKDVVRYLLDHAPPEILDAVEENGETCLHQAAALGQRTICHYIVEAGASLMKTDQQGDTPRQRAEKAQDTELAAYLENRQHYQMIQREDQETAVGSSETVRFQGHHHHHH
Assay Summary: In vitro DGK inhibition assay, DGKζ liposome (LIPGLO) assay
Test Context: read-out: Enzyme Inhibition DGKzeta IC50
Below, each entry is listed alongside its reported IC50.
State just the number; it will be interpreted in µM.

Completed entries (count: 2):
Chemical Structure: Cn1c(=O)cc(N(CC2CC2)c2cccc(C(F)(F)F)c2)c2nc(C#N)ccc21
Measured Property: IC50
Value Measured: 5.1
//
Chemical Structure: COc1cc(-c2ccc(N(CC3CC3)c3cc(=O)n(C)c4ccc(C#N)nc34)cc2)ccn1
Measured Property: IC50
Value Measured: 5

Which IC50 is listed for Cn1c(=O)cc(N(CC2CC2)c2ccc(OC(F)(F)F)cc2)c2nc(C#N)ccc21 ?
3

Which IC50 is listed for Cn1c(=O)cc(N(CC2CC2)c2ccc(F)nc2)c2nc(C#N)ccc21 ?
3

* * *

Target Under Test: human DGKα (Homo sapiens)
Construct: TVMV protease cleavage site (C); Hexa-His (C)
Sequence (P23743 with tags, fused parts or gaps): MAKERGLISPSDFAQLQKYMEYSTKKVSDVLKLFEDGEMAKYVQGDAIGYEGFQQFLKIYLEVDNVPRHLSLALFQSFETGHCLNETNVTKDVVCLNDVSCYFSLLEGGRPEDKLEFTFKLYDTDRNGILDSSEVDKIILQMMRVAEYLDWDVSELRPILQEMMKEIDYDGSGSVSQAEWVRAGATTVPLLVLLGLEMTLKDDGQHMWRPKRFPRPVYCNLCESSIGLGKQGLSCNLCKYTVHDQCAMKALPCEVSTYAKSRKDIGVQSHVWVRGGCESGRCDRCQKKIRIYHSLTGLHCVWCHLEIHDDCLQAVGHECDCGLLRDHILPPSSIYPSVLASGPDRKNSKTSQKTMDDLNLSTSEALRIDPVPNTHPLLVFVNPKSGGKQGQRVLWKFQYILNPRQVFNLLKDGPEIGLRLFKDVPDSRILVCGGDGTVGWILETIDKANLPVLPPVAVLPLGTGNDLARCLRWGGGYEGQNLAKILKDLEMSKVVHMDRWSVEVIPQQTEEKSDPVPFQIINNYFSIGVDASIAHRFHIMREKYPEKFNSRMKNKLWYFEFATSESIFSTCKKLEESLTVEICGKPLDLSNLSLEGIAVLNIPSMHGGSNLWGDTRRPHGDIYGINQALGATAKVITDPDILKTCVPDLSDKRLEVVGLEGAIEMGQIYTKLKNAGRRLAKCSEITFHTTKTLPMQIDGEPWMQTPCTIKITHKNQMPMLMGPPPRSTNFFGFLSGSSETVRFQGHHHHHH
Assay Summary: In vitro DGK inhibition assay, DGKα liposome (LIPGLO) assay
Test Context: read-out: Enzyme Inhibition DGKalpha IC50
Measured Property: log10 IC50 (log10 of the value in µM)
Give log10 of IC50, with IC50 taken in µM.

Completed entries (count: 5):
Molecule: CN(c1ccc(F)cc1)c1cc(=O)n(C)c2ccc(C#N)nc12 [Example 23]
Target Under Test: human DGKα (Homo sapiens)
log10 IC50: -0.96

Molecule: Cn1c(=O)nc(N(CC2CC2)c2ccc(C3CC3)cc2)c2nc(Cl)ccc21 [Example 58]
Target Under Test: human DGKα (Homo sapiens)
log10 IC50: 0.58

Molecule: Cn1c(=O)cc(N(CC2CC2)c2ccc(C3CCCCC3)cc2)c2nc(C#N)ccc21 [Example 119]
Target Under Test: human DGKα (Homo sapiens)
log10 IC50: 1.11

Molecule: Cc1cccc(-c2cccc(N(CC3CC3)c3cc(=O)n(C)c4ccc(C#N)nc34)c2)c1 [Example 92]
Target Under Test: human DGKα (Homo sapiens)
log10 IC50: -0.11

Molecule: COc1ccc(-c2cccc(N(CC3CC3)c3cc(=O)n(C)c4ccc(C#N)nc34)c2)cc1 [Example 91]
Target Under Test: human DGKα (Homo sapiens)
log10 IC50: -1.64

Which log10 IC50 is listed for COCc1ccccc1N(CC1CC1)c1cc(=O)n(C)c2ccc(C#N)nc12 [Example 67] ?
0.65

Which log10 IC50 is listed for COc1cccc(-c2ccc(N(CC3CC3)c3cc(=O)n(C)c4ccc(C#N)nc34)cc2)c1 [Example 77] ?
0.98

Which log10 IC50 is listed for Cc1cccc(N(C)c2cc(=O)n(C)c3ccc(C#N)nc23)c1 [Example 22] ?
0.11

* * *

Below, each entry is listed alongside its reported EC50.
Target Under Test: DGKzeta (Homo sapiens, UniProt Q13574)
Sequence (Q13574 whole entry): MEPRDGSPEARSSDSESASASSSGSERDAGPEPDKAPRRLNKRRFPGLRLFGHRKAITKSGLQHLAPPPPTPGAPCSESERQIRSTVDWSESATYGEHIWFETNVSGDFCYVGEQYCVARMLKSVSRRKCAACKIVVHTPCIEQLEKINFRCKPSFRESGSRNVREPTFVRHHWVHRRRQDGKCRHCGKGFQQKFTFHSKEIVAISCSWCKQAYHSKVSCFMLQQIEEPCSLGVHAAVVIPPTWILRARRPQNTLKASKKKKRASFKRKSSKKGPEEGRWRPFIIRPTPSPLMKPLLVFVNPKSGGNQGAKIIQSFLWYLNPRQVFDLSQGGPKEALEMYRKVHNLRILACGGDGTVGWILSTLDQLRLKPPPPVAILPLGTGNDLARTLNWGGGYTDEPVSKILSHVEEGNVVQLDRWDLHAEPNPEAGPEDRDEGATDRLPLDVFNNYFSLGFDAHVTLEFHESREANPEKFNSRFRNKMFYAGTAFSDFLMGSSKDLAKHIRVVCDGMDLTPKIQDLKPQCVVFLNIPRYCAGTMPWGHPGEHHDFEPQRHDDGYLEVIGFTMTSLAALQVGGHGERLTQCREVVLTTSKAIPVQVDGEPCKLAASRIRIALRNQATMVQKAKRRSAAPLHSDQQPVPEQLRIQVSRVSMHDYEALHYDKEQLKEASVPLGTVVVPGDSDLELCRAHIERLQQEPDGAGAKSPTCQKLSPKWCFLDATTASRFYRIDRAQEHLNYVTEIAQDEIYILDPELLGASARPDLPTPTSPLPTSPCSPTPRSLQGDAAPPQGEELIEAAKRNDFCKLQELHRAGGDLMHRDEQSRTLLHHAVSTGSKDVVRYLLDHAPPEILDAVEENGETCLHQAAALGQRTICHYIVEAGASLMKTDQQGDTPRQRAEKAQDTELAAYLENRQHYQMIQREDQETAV
Assay Summary: Translocation DGKzeta
State just the number; it will be interpreted in µM.

Completed entries (count: 2):
Chemical Structure: Cn1c(=O)cc(N(CC2CC2)c2ccc(C3CC3)c(-c3ccc(F)cc3)c2)c2nc(C#N)ccc21
Target Under Test: DGKzeta (Homo sapiens, UniProt Q13574)
EC50 (µM): 0.1
//
Chemical Structure: Cn1c(=O)cc(N(CC2CC2)c2ccc(OC(F)F)c(C#N)c2)c2nc(C#N)ccc21
Target Under Test: DGKzeta (Homo sapiens, UniProt Q13574)
EC50 (µM): 1.3

Which EC50 is listed for Cc1cc(C2CC2)ccc1N(CC1CC1)c1cc(=O)n(C)c2ccc(C#N)nc12 ?
0.25

Which EC50 is listed for Cn1c(=O)cc(N(CC2CC2)c2ccc(C#N)nc2)c2nc(C#N)ccc21 ?
3

Which EC50 is listed for Cn1c(=O)cc(N(CC2CC2)c2ccc(C3CCC3)cc2)c2nc(C#N)ccc21 ?
0.013

Which EC50 is listed for Cn1c(=O)cc(N(CC2CC2)c2ccc(C3CC3)c(-c3ccc(N4CCOCC4)cc3)c2)c2nc(C#N)ccc21 ?
0.18

Which EC50 is listed for COc1cccc(-c2cc(N(CC3CC3)c3cc(=O)n(C)c4ccc(C#N)nc34)ccc2C2CC2)c1 ?
0.13

Which EC50 is listed for Cn1c(=O)cc(N(CC2CC2)c2ccc(C3CC3)c(-c3ccccc3)c2)c2nc(C#N)ccc21 ?
0.17
